Data origin: patent US20110165145A1

target: insulin-like growth factor II (IGF-II), amino acids 1-67 (human, UniProt P01344 25-91); assay: cell-based or functional assay
Sequence (P01344 25-91): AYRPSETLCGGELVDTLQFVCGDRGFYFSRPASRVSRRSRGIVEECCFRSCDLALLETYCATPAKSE
VALUE_KIND: IC50, IGF-II stimulated Ba/F3 cell proliferation (MTS) (µg/mL)
Field: numeric (µg/mL). Do not append units.

M0072-C06 Fab (Fab, V domains shown, soluble Fab (sFab); also called R0032-A09) VH: EVQLLESGGGLVQPGGSLRLSCAASGFTFSAYIMTWVRQAPGKGLEWVSSISPSGGYTVYADSVKGRFTISRDNSKNTLYLQMNSLRAEDTAVYYCARDSGFGDPFDYWGQGTMVTVSS VL: DIQMTQSPSSLSASVGDRVTITCRASQSIRNYLNWYQQKPGKAPKLLIYAASKLEDGVPSRFSGSGTGTDFTLTIRSLQPEDFASYFCQQSYSSPGITFGPGTKVEIKR
5.12

stdin: Which value of IC50, IGF-II stimulated Ba/F3 cell proliferation (MTS) has been reported for M0068-E03 Fab (Fab, V domains shown, soluble Fab (sFab); heavy constant part carries His6 and myc tags; also called R0032-C01) VH: EVQLLESGGGLVQPGGSLRLSCAASGFTFSEYVMAWVRQAPGKGLEWVSSIVSSGGYTKYADSVKGRFTISRDNSKNTLYLQMNSLRAEDTAVYYCAKDMTYSGDAFDVWGQGTMVTVSS VL: DIQMTQSPSSLSASVGDRVTITCRASQSINTYLNWYQQKPGKAPKVLIHAASTLESGVPSRFSGSGSATEFTLTISSLQPEDFATFYCQQSYSVPFTFGPGTRLSSKR in the records?
stdout: 2.27

stdin: Now consider M0072-G06 Fab (Fab, V domains shown, soluble Fab (sFab); also called R0032-C05) VH: EVQLLESGGGLVQPGGSLRLSCAASGFTFSEYVMWWVRQAPGKGLEWVSVISPSGGYTVYADSVKGRFTISRDNSKNTLYLQMNSLRAEDTAVYYCARDRGGATTLDYWGQGTLVTVSS VL: DIQMTQSPSTLSASVGDRVTITCRASQTISSWLAWYQQKPGKAPKLMIYKAASLGSEVPSRFSGSGSGTEFTLTISSLQPEDFSTYYCQQYKTYPVTFGQGTRLEIKR and answer again.
stdout: 8.7
